Listing: hERG current change (%, negative = inhibition) at 10uM of selected compounds
- target or system: human ether-à-go-go-related gene (hERG) potassium channel (human, UniProt Q12809);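 note: peak tail current of the secondary pulse compared with the same well before compound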
- Sequence (Q12809 whole entry, looked up): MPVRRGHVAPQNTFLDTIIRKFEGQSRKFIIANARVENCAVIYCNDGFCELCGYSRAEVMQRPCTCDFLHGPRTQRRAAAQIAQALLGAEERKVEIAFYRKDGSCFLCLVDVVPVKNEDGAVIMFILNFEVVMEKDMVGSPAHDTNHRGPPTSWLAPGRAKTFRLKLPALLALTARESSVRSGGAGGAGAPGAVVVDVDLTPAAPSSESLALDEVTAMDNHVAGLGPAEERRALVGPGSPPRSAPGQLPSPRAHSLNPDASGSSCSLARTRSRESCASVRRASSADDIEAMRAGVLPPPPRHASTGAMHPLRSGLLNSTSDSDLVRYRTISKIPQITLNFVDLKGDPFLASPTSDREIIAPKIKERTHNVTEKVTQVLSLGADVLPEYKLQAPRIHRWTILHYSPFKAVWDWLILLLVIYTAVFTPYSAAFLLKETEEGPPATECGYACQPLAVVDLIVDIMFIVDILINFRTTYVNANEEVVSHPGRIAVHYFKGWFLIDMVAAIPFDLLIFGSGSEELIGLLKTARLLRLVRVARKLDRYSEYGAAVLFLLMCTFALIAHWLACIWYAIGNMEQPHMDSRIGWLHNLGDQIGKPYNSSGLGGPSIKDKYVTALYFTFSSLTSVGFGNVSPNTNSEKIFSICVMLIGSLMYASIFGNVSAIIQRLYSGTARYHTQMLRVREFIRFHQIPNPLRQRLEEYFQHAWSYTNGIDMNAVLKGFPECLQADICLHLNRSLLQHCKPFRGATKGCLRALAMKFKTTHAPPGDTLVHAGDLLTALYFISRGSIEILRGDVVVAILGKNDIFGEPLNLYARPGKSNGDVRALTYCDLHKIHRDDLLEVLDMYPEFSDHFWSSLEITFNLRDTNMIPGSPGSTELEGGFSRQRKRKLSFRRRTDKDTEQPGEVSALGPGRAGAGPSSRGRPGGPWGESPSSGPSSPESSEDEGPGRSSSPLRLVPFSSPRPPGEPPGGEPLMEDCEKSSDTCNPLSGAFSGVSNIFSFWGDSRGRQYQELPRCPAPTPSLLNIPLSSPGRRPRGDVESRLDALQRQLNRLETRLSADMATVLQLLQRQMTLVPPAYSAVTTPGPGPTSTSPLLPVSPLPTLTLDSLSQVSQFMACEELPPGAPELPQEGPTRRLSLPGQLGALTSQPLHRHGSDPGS
- assay details: primary screen, population patch clamp on CHO cells stably expressing hERG; higher = less effect of the substance
The whole screen tested about 310,000 compounds, of which about 14,000 (4.5%) showed an effect of 50% or more. The effect is printed as a negative number. For the sample, strong results were picked, then their nearest neighbours and some compounds at random.

# input smiles, reported result
measured = [
    ("Cl.OCCNCc1cccc(OCc2ccc(Cl)cc2)c1", "-12.9%"),
    ("CCn1c(CNC(=O)c2ccco2)nnc1SCC(=O)Nc1ccc(Br)cc1F", "-54.8%"),
]

Noted for COc1ccc(C(=O)NCCc2nnc(SCC(=O)Nc3ccccc3C(C)C)n2C)cc1 : its hERG current change (%, negative = inhibition) at 10uM reads -13.3%

Form field hERG current change (%, negative = inhibition) at 10uM, entry COc1cc(CNCc2ccccn2)ccc1OCc1cccc(Cl)c1.Cl : -54%

Entry COc1cc(CNCc2ccccn2)ccc1OCc1ccc(Cl)c(Cl)c1.Cl — recorded hERG current change (%, negative = inhibition) at 10uM = -51.2%

The compound Cl.Clc1ccc(COc2cccc(CNCc3ccncc3)c2)cc1 showed hERG current change (%, negative = inhibition) at 10uM equal to -59.8%

* * *

- target or system: human ether-à-go-go-related gene (hERG) potassium channel (human, UniProt Q12809);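 note: peak tail current of the secondary pulse compared with the same well before compound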
- assay details: primary screen, population patch clamp on CHO cells stably expressing hERG; higher = less effect of the substance
The whole screen tested about 310,000 compounds, of which about 14,000 (4.5%) showed an effect of 50% or more. Effects have a minus sign here. The sample holds strong results, similar compounds and a random draw of the others, so the mix is not that of the screen.
property name: hERG current change (%, negative = inhibition) at 10uM (%)
Please state the figure in %; there is no need to write the unit.

The following molecules have reported results that may help.
# molecule, reported result
data = [
    ("O=C(NCCCN1CCOCC1)c1cc2c(s1)-c1ccccc1OC2", -44.5),
    ("O=C(NC1CC1)c1cc2c(s1)-c1ccccc1OC2", 12.6),
]

Param item: O=C(NCc1cccs1)c1cc2c(s1)-c1ccccc1OC2 ; param system: human ether-à-go-go-related gene (hERG) potassium channel (human, UniProt Q12809); output hERG current change (%, negative = inhibition) at 10uM: 1.42

The observed hERG current change (%, negative = inhibition) at 10uM for CCc1nnc(NC(=O)C2(C)COC(c3ccc(OC)cc3)OC2)s1 (centres unmarked) when tested with human ether-à-go-go-related gene (hERG) potassium channel (human, UniProt Q12809) stands at 10.1

human ether-à-go-go-related gene (hERG) potassium channel (human, UniProt Q12809) data for O=C(CSc1nnc(-c2cccnc2)n1Cc1ccco1)c1ccc(Cl)cc1 ; its hERG current change (%, negative = inhibition) at 10uM: -63.6

* * *

- target or system: human ether-à-go-go-related gene (hERG) potassium channel (human);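 note: peak tail current of the secondary pulse compared with the same well before compound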
- assay details: primary screen, population patch clamp on CHO cells stably expressing hERG; higher = less effect of the substance
The campaign covered roughly 310,000 compounds. About 14,000 (4.5%) showed an effect of 50% or more. Effects have a minus sign here. This is one part of a sample in which strong results are shown more often than they occur.
property name: hERG current change (%, negative = inhibition) at 10uM
Please append the unit to your numeric answer.

# compound, reported result
measured = [
    ("CCOc1ccccc1/C=C/c1onc(C)c1S(=O)(=O)N1CCC(C(=O)N(CC)CC)CC1", "-3.33%"),
    ("c1ccc(C2CCC(N3CCC(N4CCCCC4)CC3)CC2)cc1 (stereo not drawn)", "10.8%"),
    ("CCOC(=O)c1cnc2c(OC)cccc2c1N1CCN(c2ccc(OC)cc2)CC1", "-47.1%"),
    ("Cc1cc(C(=O)NNC(=O)c2sccc2C)c(C)o1", "7.27%"),
    ("COc1ccccc1N1CCN(c2nc(C)nc3c2oc2ccccc23)CC1.Cl", "-1.5%"),
    ("COc1ccc(OC)c(C(C(=O)NC2CCCCC2)N(C(=O)c2snc(C(N)=O)c2N)c2ccccc2OC)c1 (stereo not drawn)", "14.8%"),
]

Entry CC(C)C(CCN1C(=O)CCC1=O)C1CCOC(C)(C)C1 (stereo not drawn) — recorded hERG current change (%, negative = inhibition) at 10uM = 4.36%

hERG current change (%, negative = inhibition) at 10uM recorded for this compound, O=C1CN(C(=O)COC(=O)C2CC(=O)N(Cc3ccco3)C2)c2ccccc2N1 (stereo not drawn) , is -7.99%

The measured hERG current change (%, negative = inhibition) at 10uM associated with CCOC(=O)c1cnc2c(OC)cccc2c1N1CCN(c2ccccc2OC)CC1 reads -45.4%

* * *

- target or system: human ether-à-go-go-related gene (hERG) potassium channel (human, UniProt Q12809);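 note: peak tail current of the secondary pulse compared with the same well before compound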
- assay details: primary screen, population patch clamp on CHO cells stably expressing hERG; higher = less effect of the substance
Among all 310,000 compounds or so, about 14,000 (4.5%) showed an effect of 50% or more. The effect is printed as a negative number. The list comes from a sample in which strong results are over-represented; it also holds close analogues and randomly drawn compounds.
Binary call on hERG current change (%, negative = inhibition) at 10uM: met from -10% upward, not met beneath that.

# check: hERG current change (%, negative = inhibition) at 10uM of COC(=O)c1ccc(CO/N=C2\CCCc3nonc32)cc1 is greater than or equal to -10% not met

Does the reported hERG current change (%, negative = inhibition) at 10uM for Br.N#Cc1ccc(CSC2=NCCN2)cc1 fall at or above the -10% mark? met

Is it the case that COc1ccc(CNC(=O)c2c(C)cc(=O)oc2C)cc1 has hERG current change (%, negative = inhibition) at 10uM reaching or exceeding -10%? not met

In plain terms: is recorded hERG current change (%, negative = inhibition) at 10uM at least -10% for CCOc1ccc(CSC2=NCCN2)cc1Cl.Cl ? not met

Is hERG current change (%, negative = inhibition) at 10uM at least -10%? Consider COc1ccc(CSc2n[nH]c(C)n2)cc1[N+](=O)[O-] met

Does the reported hERG current change (%, negative = inhibition) at 10uM for Cl.Clc1ccc(CSC2=NCCCN2)cc1Cl fall at or above the -10% mark? not met

For this compound, is measured hERG current change (%, negative = inhibition) at 10uM -10% or higher? COc1ccc(CSc2cccc3cccnc23)cc1[N+](=O)[O-] met

Does the reported hERG current change (%, negative = inhibition) at 10uM for C(=C\c1ccccc1)/CSc1nnc(-c2ccccc2)n1Cc1ccco1 fall at or above the -10% mark? not met

Reported hERG current change (%, negative = inhibition) at 10uM reaches at least -10% for Clc1ccc(-n2c(SC/C=C/c3ccccc3)nnc2-c2cccnc2)cc1 ? not met

Is reported hERG current change (%, negative = inhibition) at 10uM greater than or equal to -10% here: CCSc1nnc(-c2cccnc2)n1Cc1ccco1 met

Say whether Cc1cc(SCC(=O)NN)c2cc(Br)ccc2n1 shows hERG current change (%, negative = inhibition) at 10uM of -10% or more. met

Tell me whether hERG current change (%, negative = inhibition) at 10uM is at least -10% here: COc1ccc(N(CC(=O)NC2CC3CCC2C3)S(=O)(=O)c2ccccc2)cc1Cl (stereo not shown) not met

Kindly determine if hERG current change (%, negative = inhibition) at 10uM recorded for Cc1noc(C)c1CSc1nnc(-c2ccccc2)n1Cc1ccco1 is above or exactly -10%. not met

Determine whether measured hERG current change (%, negative = inhibition) at 10uM meets or exceeds -10% for Cn1c(SC/C=C/c2ccccc2)nnc1-c1ccco1 not met

Hello, I need to know if Cc1c(NC(=O)/C(C#N)=C/c2c(Oc3ccccc3)nc3ccccn3c2=O)c(=O)n(-c2ccccc2)n1C has measured hERG current change (%, negative = inhibition) at 10uM not below -10%. Thanks! met

Say whether COc1ccc(CN2CCN(C(=O)c3cccs3)CC2)cc1Br shows hERG current change (%, negative = inhibition) at 10uM of -10% or more. not met

Is reported hERG current change (%, negative = inhibition) at 10uM greater than or equal to -10% here: Cc1cc(Cl)c2oc(C(=O)N(C)CCCCN3CCOCC3)c(C)c2c1 not met

Check if hERG current change (%, negative = inhibition) at 10uM >= -10% (inclusive). Item: CCCCOc1ccc(CSc2nnc(C)n2N)cc1[N+](=O)[O-] not met

Form field: hERG current change (%, negative = inhibition) at 10uM at least -10%? Entry: Nn1c(SC/C=C/c2ccccc2)nnc1-c1ccncc1 met

Exam item: decide whether the reported hERG current change (%, negative = inhibition) at 10uM for COc1ccc(CSC2=NCCN2)cc1Br is at least -10%. met

Check the entry COc1ccc(CSC2=NCCN2)cc1Cl.Cl : does hERG current change (%, negative = inhibition) at 10uM equal or exceed -10%? not met

Source: paper PMC4336329
